Tested on: Hepatotoxicity
Test: FDA HLAED, alkaline phosphatase increase
Settings: human
readout_name: Alkaline Phosphatase Increase - Number of Reports

Solved entries (count: 4):
COc1cc2nc(N3CCN(C(=O)C4COc5ccccc5O4)CC3)nc(N)c2cc1OC (stereo not given) [DOXAZOSIN] ... < 4
O=C(O)c1cc(-c2ccc(F)cc2F)ccc1O [DIFLUNISAL] ... < 4
C=C1/C(=C\C=C2/CCC[C@]3(C)[C@@H]([C@H](C)CCCC(C)(C)O)CC[C@@H]23)C[C@@H](O)C[C@@H]1O [CALCITRIOL] ... < 4
COc1ccc2[nH]c([S+]([O-])Cc3ncc(C)c(OC)c3C)nc2c1 (stereo not given) [OMEPRAZOLE] ... >= 4

Now consider a different compound.
Field request: Alkaline Phosphatase Increase - Number of Reports | item: CC[C@@H]1C(=O)OC[C@@H]1Cc1cncn1C [PILOCARPINE]
< 4

====

Test system: Hepatotoxicity
Assay: FDA HLAED, lactate dehydrogenase (LDH) increase
Conditions: human
The compounds listed here are annotated with their LDH Increase - Index Value.
The reply should be a number, written without any unit.

Solved entries (count: 5):
CO[C@@]1(NC(=O)C2SC(=C(C(N)=O)C(=O)O)S2)C(=O)N2C(C(=O)O)=C(CSc3nnnn3C)CS[C@@H]21 (stereo partly drawn) ... 0
CCCCCCC(=O)O[C@H]1CC[C@H]2[C@@H]3CCc4cc(O)ccc4[C@H]3CC[C@]12C [ESTRADIOL ENANTHATE] ... 1.2
CCCC1O[C@@H]2C[C@H]3[C@@H]4CCC5=CC(=O)C=C[C@]5(C)[C@H]4[C@@H](O)C[C@]3(C)[C@]2(C(=O)CO)O1 (stereo partly drawn) [BUDESONIDE] ... 0
O=C(c1ccccc1)c1ccc2n1CCC2C(=O)O (stereo not drawn) ... 0.5
CCn1cc(C(=O)O)c(=O)c2cc(F)c(N3CCNCC3)nc21 ... 0

Field request: LDH Increase - Index Value | item: Nc1nc2c(ncn2CCC(CO)CO)c(=O)[nH]1
0

====

Test system: Hepatotoxicity
Assay: FDA HLAED, alkaline phosphatase increase
Settings: human
readout_name: Alkaline Phosphatase Increase - Activity Score

Solved entries (count: 8):
Nc1cc(Cl)c(N=C2NCCN2)c(Cl)c1 ... Inactive
COC1=CC(=O)C[C@@H](C)[C@]12Oc1c(Cl)c(OC)cc(OC)c1C2=O ... Active
C=C1CC[C@@]2(O)[C@H]3Cc4ccc(O)c5c4[C@@]2(CCN3CC2CC2)[C@H]1O5 ... Inactive
CC(NCCc1ccc(O)cc1)C(O)c1ccc(O)cc1 (configuration not stated) ... Inactive
C[C@H]1O[C@H](O[C@H]2[C@H](O)[C@@H](O)[C@@H](O[C@H]3[C@H](O)[C@@H](O)C(O)O[C@@H]3CO)O[C@@H]2CO)[C@H](O)[C@@H](O)[C@@H]1N[C@H]1C=C(CO)[C@@H](O)[C@H](O)[C@H]1O (some centres not stated) ... Inactive
CO[C@@]1(NC(=O)Cc2cccs2)C(=O)N2C(C(=O)O)=C(COC(N)=O)CS[C@@H]21 ... Inactive
COc1ccc2[nH]c([S+]([O-])Cc3ncc(C)c(OC)c3C)nc2c1 (configuration not stated) ... Inactive
CC(C)(C)NC[C@H](O)COc1ccccc1C1CCCC1 ... Inactive

Field request: Alkaline Phosphatase Increase - Activity Score | item: C[N+](C)(C)CCO.Cn1c(=O)c2[n-]cnc2n(C)c1=O
Inactive

Field request: Alkaline Phosphatase Increase - Activity Score | item: CO[C@]12CC[C@@]3(C[C@@H]1[C@](C)(O)C(C)(C)C)[C@H]1Cc4ccc(O)c5c4[C@@]3(CCN1CC1CC1)[C@H]2O5
Inactive

Field request: Alkaline Phosphatase Increase - Activity Score | item: CC(S)C(=O)NCC(=O)O (configuration not stated)
Inactive

Field request: Alkaline Phosphatase Increase - Activity Score | item: C[C@H](CCC(=O)O)[C@H]1CC[C@H]2[C@@H]3[C@H](O)C[C@@H]4C[C@H](O)CC[C@]4(C)[C@H]3CC[C@]12C
Inactive

Field request: Alkaline Phosphatase Increase - Activity Score | item: Cc1cc(C2CCCCC2)n(O)c(=O)c1
Inactive

Field request: Alkaline Phosphatase Increase - Activity Score | item: Cn1cc([S+](C)[O-])c(=O)c2ccc(F)cc21 (configuration not stated)
Inactive

Field request: Alkaline Phosphatase Increase - Activity Score | item: CN1CCN2c3ncccc3Cc3ccccc3C2C1 (configuration not stated)
Inactive

Field request: Alkaline Phosphatase Increase - Activity Score | item: Nc1nc2ccc(OC(F)(F)F)cc2s1
Active

Field request: Alkaline Phosphatase Increase - Activity Score | item: C[C@]12CC[C@@H]3c4ccc(OC(=O)N(CCCl)CCCl)cc4CC[C@H]3[C@@H]1CC[C@@H]2O
Active

====

Test system: Hepatotoxicity
Assay: FDA HLAED, alkaline phosphatase increase
Conditions: human
readout_name: Alkaline Phosphatase Increase - Activity Score

Nc1nc(Cl)nc2c1ncn2[C@H]1C[C@H](O)[C@@H](CO)O1 [CLADRIBINE] ... Inactive
NCCC(O)(P(=O)(O)O)P(=O)(O)O [PAMIDRONIC ACID] ... Active
CC(O)(P(=O)(O)O)P(=O)(O)O [ETIDRONIC ACID] ... Active
Cc1cc(CC(=O)O)n(C)c1C(=O)c1ccc(Cl)cc1 [ZOMEPIRAC] ... Inactive
CCOC(=O)[C@H](CCc1ccccc1)N[C@@H](C)C(=O)N1Cc2ccccc2C[C@H]1C(=O)O ... Inactive
CNC(=C[N+](=O)[O-])NCCSCc1ccc(CN(C)C)o1 [RANITIDINE] ... Inactive

Notebook entry, Hepatotoxicity assay: Alkaline Phosphatase Increase - Activity Score of CC(C)/N=c1\cc2n(-c3ccc(Cl)cc3)c3ccccc3nc-2cc1Nc1ccc(Cl)cc1 [CLOFAZIMINE] = ?
Active

Notebook entry, Hepatotoxicity assay: Alkaline Phosphatase Increase - Activity Score of C=CC1=C(C(=O)O)N2C(=O)[C@@H](NC(=O)/C(=N\OCC(=O)O)c3csc(N)n3)[C@H]2SC1 [CEFIXIME] = ?
Inactive

Notebook entry, Hepatotoxicity assay: Alkaline Phosphatase Increase - Activity Score of CCCCNc1cc(C(=O)O)cc(S(N)(=O)=O)c1Oc1ccccc1 [BUMETANIDE] = ?
Inactive

Notebook entry, Hepatotoxicity assay: Alkaline Phosphatase Increase - Activity Score of C[C@]12CC[C@@H]3c4ccc(OC(=O)c5ccccc5)cc4CC[C@H]3[C@@H]1CC[C@@H]2O [ESTRADIOL BENZOATE] = ?
Inactive

Notebook entry, Hepatotoxicity assay: Alkaline Phosphatase Increase - Activity Score of Clc1ccc(C(Cn2ccnc2)OCc2ccsc2Cl)c(Cl)c1 (stereo not given) [TIOCONAZOLE] = ?
Inactive

Notebook entry, Hepatotoxicity assay: Alkaline Phosphatase Increase - Activity Score of CCOC(=O)/C=C(C)/C=C/C=C(C)/C=C/c1c(C)cc(OC)c(C)c1C [ETRETINATE] = ?
Active

Notebook entry, Hepatotoxicity assay: Alkaline Phosphatase Increase - Activity Score of CC1(C)S[C@@H]2[C@H](NC(=O)[C@H](N)c3ccc(O)cc3)C(=O)N2[C@H]1C(=O)O [AMOXICILLIN] = ?
Inactive

Notebook entry, Hepatotoxicity assay: Alkaline Phosphatase Increase - Activity Score of CO/N=C(/C(=O)N[C@@H]1C(=O)N2C(C(=O)OC(C)OC(=O)C(C)(C)OC)=C(COC(N)=O)CS[C@H]12)c1ccco1 (stereo not given in full) [CEFUROXIME PIVOXETIL] = ?
Inactive

Notebook entry, Hepatotoxicity assay: Alkaline Phosphatase Increase - Activity Score of CCOC(=O)Nc1ccc2c(c1)N(C(=O)CCN1CCOCC1)c1ccccc1S2 [MORICIZINE] = ?
Inactive

Notebook entry, Hepatotoxicity assay: Alkaline Phosphatase Increase - Activity Score of NNC(=O)c1ccncc1 [ISONIAZID] = ?
Active

====

Tested on: Hepatotoxicity
Test: FDA HLAED, serum glutamic pyruvic transaminase (SGPT) increase
Settings: human
readout_name: SGPT Increase - Activity Score

CC(C)NCC(O)c1ccc(NS(C)(=O)=O)cc1 (stereo not drawn) [SOTALOL] ... Inactive
C[C@H]1C[C@H]2[C@@H]3CCC4=CC(=O)C=C[C@]4(C)[C@@]3(F)[C@@H](O)C[C@]2(C)[C@@]1(O)C(=O)CCl [CLOBETASOL] ... Inactive

====

Tested on: Hepatotoxicity
Experiment: FDA HLAED, alkaline phosphatase increase
Details: human
The compounds listed here are annotated with their Alkaline Phosphatase Increase - Index Value.
The reply should be a number, written without any unit.

Solved entries (count: 2):
O=c1n(CCCN2CCN(c3cccc(Cl)c3)CC2)nc2ccccn12 ... 0.2
C=CCN1C[C@H](C(=O)N(CCCN(C)C)C(=O)NCC)C[C@@H]2c3cccc4[nH]cc(c34)C[C@H]21 ... 0

Field request: Alkaline Phosphatase Increase - Index Value | item: CCN[C@H]1C[C@H](C)S(=O)(=O)c2sc(S(N)(=O)=O)cc21 [DORZOLAMIDE]
0

Field request: Alkaline Phosphatase Increase - Index Value | item: CNC(=C[N+](=O)[O-])NCCSCc1ccc(CN(C)C)o1
1.1

Field request: Alkaline Phosphatase Increase - Index Value | item: O=C(O)P(=O)(O)O
181.6
